# Test Target: GSK3β (H350L) (Homo sapiens (Human), UniProt P49841)
# Sequence (P49841 whole entry, stated change not applied): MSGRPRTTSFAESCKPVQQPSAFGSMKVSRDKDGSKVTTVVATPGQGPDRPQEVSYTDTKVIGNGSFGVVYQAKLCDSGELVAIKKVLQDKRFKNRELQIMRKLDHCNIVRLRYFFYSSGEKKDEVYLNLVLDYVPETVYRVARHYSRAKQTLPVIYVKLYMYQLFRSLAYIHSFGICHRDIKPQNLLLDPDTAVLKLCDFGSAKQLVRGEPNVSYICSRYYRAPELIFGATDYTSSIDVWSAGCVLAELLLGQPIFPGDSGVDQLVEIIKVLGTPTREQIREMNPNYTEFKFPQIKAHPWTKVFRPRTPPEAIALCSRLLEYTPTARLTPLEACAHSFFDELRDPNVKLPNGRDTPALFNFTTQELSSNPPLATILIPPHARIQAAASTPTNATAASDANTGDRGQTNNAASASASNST
# Test Parameters: read-out: GSK3β Ki
Criterion: Ki strictly under 50 nM. Met: TRUE. Not met: FALSE.

1. CC(C)(C)NC(=O)O[C@@H]1CC[C@H](c2cc(NC(=O)Cc3cnc(C(F)(F)F)cn3)n[nH]2)C1	TRUE
2. CCN(C)C(=O)O[C@H]1CC[C@@H](c2cc(NC(=O)Cc3ccnc(OC)c3)n[nH]2)C1	TRUE
3. CC1(C)CCCN1C(=O)O[C@@H]1CC[C@H](c2cc(NC(=O)Cc3cnc4ncnn4c3)n[nH]2)C1	TRUE
4. CCCNC(=O)O[C@@H]1CC[C@H](c2cc(NC(=O)Cc3cnc(C)s3)n[nH]2)C1	TRUE
5. CC[C@H](C)NC(=O)O[C@@H]1CC[C@H](c2cc(NC(=O)Cc3cc(C)ccc3S(C)(=O)=O)n[nH]2)C1	FALSE
6. CC(C)(C)NC(=O)O[C@@H]1CC[C@H](c2cc(NC(=O)Cc3ccno3)n[nH]2)C1	TRUE
7. CCCNC(=O)O[C@@H]1CC[C@H](c2cc(NC(=O)c3cc(C)nn3C)n[nH]2)C1	FALSE
8. C[C@@H]1COCCN1C(=O)O[C@@H]1CC[C@H](c2cc(NC(=O)Cc3cc(F)cc(F)c3)n[nH]2)C1	TRUE
9. Cc1cc(CC(=O)Nc2cc([C@H]3CC[C@@H](OC(=O)N4CCCCC4(C)C)C3)[nH]n2)on1	TRUE
10. CCCNC(=O)O[C@@H]1CC[C@H](c2cc(NC(=O)Cc3cc(OC)ccc3S(C)(=O)=O)n[nH]2)C1	FALSE
11. CCCNC(=O)O[C@@H]1CC[C@H](c2cc(NC(=O)c3ccnn3C)n[nH]2)C1	TRUE
12. Cc1cc(CC(=O)Nc2cc([C@H]3CC[C@@H](OC(=O)N4CCC4(C)C)C3)[nH]n2)on1	TRUE
13. CCNC(=O)O[C@@H]1CC[C@H](c2cc(NC(=O)Cc3ccno3)n[nH]2)C1	FALSE
14. Cc1ncc(CC(=O)Nc2cc([C@@H]3CC[C@H](OC(=O)N[C@H]4CC[C@@](C)(O)CC4)C3)[nH]n2)s1	TRUE
